The reported measurements were obtained from ChEMBL document CHEMBL1141189.

Measured half-life of individual entries
# ASSAY EXPLANATION: Half life in rat administered with 10 mg/kg, po
# Type: ADME, organism-based
# Design: dose 10 mg/kg, route oral
# APPLIED CONDITIONS: in vivo
PROPERTY MEASURED: half-life (h)

{"COMPOUND": "CN1CCN(C(=O)c2nc3cc(Cl)ccc3[nH]2)CC1", "PROPERTY MEASURED": "half-life", "NUMERIC VALUE": 1}
{"COMPOUND": "CN1CCN(C(=O)c2cc3cc(Cl)ccc3[nH]2)CC1 [JNJ-7777120]", "PROPERTY MEASURED": "half-life", "NUMERIC VALUE": 2.3}
